The reported measurements were obtained from patent US7731985B2.

Test system: Pseudomonas aeruginosa CIP A-22 (=PA)
Protocol details: MIC in microtitre plates (Example 10)
Assay type: cell-based
Set-up: unit not given here
Test context: microtitre plate, 48 hours at 37° C., ≦20% growth
Property: MIC PA

compound=CCCCN(C)c1cc(C)nc(-c2ccncc2)n1 property="MIC PA" result=>120
compound=CCCCCCCCCCCCNc1cc(C)nc(C2CC2)n1 property="MIC PA" result=>120
compound=CCCCCCCCCCNc1cc(C)nc(-c2ccc(C)c(F)c2)n1 property="MIC PA" result=>120
compound=Cc1ccc(-c2nc(-c3ccccc3)nc(NCCCN3CCN(CCCN)CC3)c2-c2ccccc2)cc1 property="MIC PA" result=30
compound=NCCCN1CCN(CCCNc2nc(-c3ccccc3)nc(-c3cccc(C(F)(F)F)c3)c2-c2ccccc2)CC1 property="MIC PA" result=30
compound=CCCCN(CCCC)c1cc(C)nc(-c2csc(C)n2)n1 property="MIC PA" result=>120
compound=COc1ccccc1-c1nc(-c2ccccc2)nc(N2CCN(CCN)CC2)c1-c1ccccc1 property="MIC PA" result=>120
compound=Cc1cc(NCc2ccccc2)nc(-c2cccnc2)n1 property="MIC PA" result=>120
compound=CCCCCCCCCCCCNc1cc(C)nc(C(C)C)n1 property="MIC PA" result=>120
compound="CCCCCCCCCCNc1cc(C)nc(-c2ccc(-c3ccccc3)cc2)n1 [compound 97]" property="MIC PA" result=>120
compound=CCCCCCCCNc1cc(C)nc(-c2cccs2)n1 property="MIC PA" result=>120
compound=CCCCCCCCCCCCNc1cc(C)nc(-c2cccs2)n1 property="MIC PA" result=<120
compound=CCCCCCCCCCCCNc1cc(C)nc(-c2ccncc2)n1 property="MIC PA" result=<120
compound=CCCCCCNc1cc(C)nc(-c2cccs2)n1 property="MIC PA" result=>120
compound="CCCCC(CC)CNc1cc(C)nc(-c2ccccc2)n1 (centres unmarked)" property="MIC PA" result=>120
compound=CCCCCCNc1cc(C)nc(-c2ccc(C)c(F)c2)n1 property="MIC PA" result=>120
compound=CNCCN(C)c1nc(-c2ccccc2)nc(-c2ccccc2OC)c1-c1ccccc1 property="MIC PA" result=>120
compound=CCCCCCCCNc1cc(C)nc(-c2cccnc2)n1 property="MIC PA" result=>120
compound=CCCCCCCCCCCCNc1cc(C)nc(-c2cccc(N)c2)n1 property="MIC PA" result=>120
compound=CCCCCCNc1cc(C)nc(-c2ccncc2)n1 property="MIC PA" result=>120
compound=Cc1cc(NCCc2ccccc2)nc(-c2cccnc2)n1 property="MIC PA" result=>120
compound=CCCCN(C)c1cc(C)nc(C(C)C)n1 property="MIC PA" result=>120
compound=CCCCCCCCCCCCCCNc1cc(C)nc(-c2ccncc2)n1 property="MIC PA" result=>120
compound=CCCCCCCCCCCNc1cc(C)nc(-c2cccnc2)n1 property="MIC PA" result=120
compound=COc1ccccc1-c1nc(-c2ccccc2)nc(N2CCC(CCCC3CCNCC3)CC2)c1-c1ccccc1 property="MIC PA" result=>120
compound=Cc1cc(NCc2ccccn2)nc(-c2cccnc2)n1 property="MIC PA" result=>120
compound=CCCCCCCCCCNc1cc(C)nc(-c2ccccc2)n1 property="MIC PA" result=>120
compound="Cc1cc(NC(C)CC(C)C)nc(-c2ccncc2)n1 (centres unmarked)" property="MIC PA" result=>120
compound=Cc1ccc(-c2nc(-c3ccccc3)nc(NCCCN(C)CCCN)c2-c2ccccc2)cc1 property="MIC PA" result=7.5
compound=CCCCCCNc1cc(C)nc(-c2ccc(-c3ccccc3)cc2)n1 property="MIC PA" result=>120
compound=CCCCCCCCCCCCNc1cc(C)nc(-c2ccc(C)c(F)c2)n1 property="MIC PA" result=>120
compound=CCCCCCCCCCCCNc1cc(C)nc(-c2ccccc2)n1 property="MIC PA" result=<120
compound=Cc1cc(NCc2ccco2)nc(-c2cccnc2)n1 property="MIC PA" result=>120
compound=COc1cccc(-c2nc(-c3ccccc3)nc(NCCCN3CCN(CCCN)CC3)c2-c2ccccc2)c1 property="MIC PA" result=>120
compound=CCCCCCCCNc1cc(C)nc(-c2ccc(C)cc2)n1 property="MIC PA" result=>120
compound=Cc1ccc(-c2nc(-c3ccccc3)nc(NCCCCCCN)c2-c2ccccc2)cc1 property="MIC PA" result=>120
compound=NCCCOCCCCOCCCNc1nc(-c2ccccc2)nc(-c2ccc(F)cc2)c1-c1ccccc1 property="MIC PA" result=>120
compound=COc1cccc(-c2nc(-c3ccccc3)nc(NCCCN(C)CCCN)c2-c2ccccc2)c1 property="MIC PA" result=30

###

# MIC PA values compiled below
Tested on: Pseudomonas aeruginosa CIP A-22 (=PA)
Protocol details: MIC in microtitre plates (Example 10)
Format: cell-based
Design: unit not given here
Test context: microtitre plate, 48 hours at 37° C., ≦20% growth
Property: MIC PA

molecule="CN(CCCN)CCCNc1nc(-c2ccccc2)nc(-c2cccc(C(F)(F)F)c2)c1-c1ccccc1 [compound 21]" result=7.5
molecule="CCCCN(C)c1cc(C)nc(-c2cccnc2)n1 [compound 53]" result=>120
molecule="CCCN(CCC)c1cc(C)nc(-c2cccnc2)n1 [compound 52]" result=>120
